- System: OVCAR-8
- Test Method Notes: NCI tumour cell line growth inhibition, 48 h
The source made the active and inactive calls. Cut-off read from the data, not from the text of the source: active = GI50 up to about 1.1 µM and inactive = higher.
Permitted responses: 1 (active), 0 (inactive)

The following compounds have reported results that may help.
compound=Cc1c(NC(=O)c2cc([N+](=O)[O-])cc([N+](=O)[O-])c2)c(=O)n(-c2ccccc2)n1C qualitative_label=0
compound=CO/C(=N\N=C\c1cccc(C(F)(F)F)c1)c1ccncc1 qualitative_label=0
compound="CC(=O)O[C@H]1C(=O)[C@@]2(C)C([C@H](OC(=O)c3ccccc3)[C@]3(O)C[C@H](OC(=O)[C@H](O)[C@H](NC(=O)c4ccccc4)c4ccc(Cl)cc4)C(C)=C1C3(C)C)C1(OC(C)=O)CO[C@@H]1C[C@@H]2O (some centres undefined)" qualitative_label=1
compound="COc1ccc2c(c1OC)C(=O)N1C2=Cc2c(cc3c(c2OC)OCO3)CC1N(C)C (centres undefined)" qualitative_label=0

**Q:** Outcome? "COC(=O)CSc1[nH]c2nc(C)nc(Nc3ccccc3)c2c1C#N"
**A:** 0

**Q:** Same lookup for COC(=O)C1=C(c2cc(OC)c(OC)c(OC)c2)OC(c2ccc(OC)c(OC)c2)C1 (centres undefined) , please.
**A:** 0

----------
- Tested on: A549
- Test Method Notes: NCI tumour cell line growth inhibition, 48 h
Activity calls are given as the source filed them. Cut-off read from the data, not from the text of the source: active = GI50 up to about 1.1 µM and inactive = higher.
Measured Parameter: GI50

Solved entries (count: 8):
compound=O=C1C([P+](c2ccccc2)(c2ccccc2)c2ccccc2)=C([O-])C(=Cc2ccc(Cl)c(Cl)c2)C([O-])=C1[P+](c1ccccc1)(c1ccccc1)c1ccccc1 measured_parameter=GI50 recorded_value="2.62 µM (inactive)"
compound="COc1cc(O)c(C(=O)/C=C/c2ccccc2)c(OC)c1 [FLAVOKAWAIN B]" measured_parameter=GI50 recorded_value="10.3 µM (inactive)"
compound=Cc1cccc(C(=O)c2cccc3ccccc23)c1C(=O)O measured_parameter=GI50 recorded_value="> 100 µM (inactive)"
compound=C=CC(=O)NCCC(=O)OCn1cc(F)c(=O)[nH]c1=O measured_parameter=GI50 recorded_value="2.36 µM (inactive)"
compound=BrC(c1cccc2ccccc12)c1cccc2ccccc12 measured_parameter=GI50 recorded_value="26.4 µM (inactive)"
compound=O=C1NCC2(CCN(CCCC3(c4ccc(F)cc4)OCCO3)CC2)N1c1ccccc1 measured_parameter=GI50 recorded_value="> 100 µM (inactive)"
compound=Clc1ccc(C(n2cc(Br)cn2)n2cc(Br)cn2)cc1 measured_parameter=GI50 recorded_value="14.7 µM (inactive)"
compound=CCOC(=O)C(=O)NCCCN1CCOCC1 measured_parameter=GI50 recorded_value="> 100 µM (inactive)"

**Q:** What value of GI50 has been recorded for this entry: "c1ccc(/N=C2\C(=N/c3ccccc3)N(C3CCCCC3)/C(=N\C3CCCCC3)N2c2ccccc2)cc1"
**A:** > 100 µM (inactive)

**Q:** Same lookup for CC(NC(=O)OCc1ccccc1)NC(=O)OC(C)(C)C (stereo not given) , please.
**A:** > 100 µM (inactive)

----------
Quick reference for GI50 among some compounds
- Tested on: T47D
- Test Method Notes: NCI tumour cell line growth inhibition, 48 h
Active and inactive are the calls of the source. No stated cut-off is given here; in the data, active = GI50 up to about 1.1 µM and inactive = higher.

**Q:** What value of GI50 has been recorded for this entry: CC(NC(=O)OCc1ccccc1)NC(=O)OC(C)(C)C (stereo unspecified)
**A:** > 100 µM (inactive)

**Q:** Same lookup for C[C@H](CCc1nc(C#N)c(N)o1)[C@H]1CC[C@H]2[C@@H]3CCC4C[C@@H](O)CC[C@]4(C)[C@H]3C[C@@H](O)[C@]12C (stereo partly specified) , please.
**A:** 14.5 µM (inactive)

**Q:** Same lookup for "COc1ccc2[nH]c3c(C)c4cnccc4c(C)c3c2c1" , please.
**A:** > 10 µM (inactive)

**Q:** Same lookup for "O=[N+]([O-])c1ccc(-c2nc3cc(Cl)ccc3[nH]2)cc1" , please.
**A:** 39.1 µM (inactive)

**Q:** Same lookup for "Cc1c2c(n(CCc3ccc(Cl)cc3)c1C)NN=C(C#N)S2(=O)=O" , please.
**A:** > 100 µM (inactive)

----------
- Test system: ACHN
- Test Method Notes: NCI tumour cell line growth inhibition, 48 h
Calls of active or inactive are those of the source. Cut-off read from the data, not from the text of the source: active = GI50 up to about 1.1 µM and inactive = higher.
Quick reference for GI50 among some compounds

Solved entries (count: 2):
compound="CCC(C)CN1C(=O)NC(Cc2ccccc2)C1=O (configuration not stated)" recorded_value="> 100 µM (inactive)"
compound="COC(=O)C1=C(c2cc(OC)c(OC)c(OC)c2)OC(c2ccc(OC)c(OC)c2)C1 (configuration not stated)" recorded_value="51.2 µM (inactive)"

**Q:** What value of GI50 has been recorded for this entry: COc1cc2c(cc1OC)C1Cc3ccc(OC)c(OC)c3C[N+]1([O-])CC2 (configuration not stated)
**A:** > 100 µM (inactive)

**Q:** Same lookup for CN(CC1NCCCC1O)C12CC3CC(CC(C3)C1)C2 (configuration not stated) , please.
**A:** > 100 µM (inactive)

**Q:** Same lookup for "Nc1ccc2c(c1)C(=O)c1ccccc1-2" , please.
**A:** 72.9 µM (inactive)

**Q:** Same lookup for "COc1ccc2[nH]c3c(C)c4cnccc4c(C)c3c2c1" , please.
**A:** 2.01 µM (inactive)

**Q:** Same lookup for COc1cc2c(cc1O)C1C(O)C(O)C=C3CCN(C2)C31 (configuration not stated) , please.
**A:** 1.85 µM (inactive)

----------
- Test system: HCT-116
- Test Method Notes: NCI tumour cell line growth inhibition, 48 h
Active and inactive are the calls of the source. No stated cut-off is given here; in the data, active = GI50 up to about 1.1 µM and inactive = higher.
Measured Parameter: GI50

**Q:** Lab note: need GI50 for "COc1cc(-c2oc3c(OC)c(O)c(OC)c(O)c3c(=O)c2OC)cc(O)c1OC" on HCT-116, anyone have it?
**A:** 36.1 µM (inactive)

**Q:** Same lookup for "CN(C)c1ccc(-c2c(C#N)c(-c3ccccc3)n(NS(=O)(=O)c3ccccc3)c(=O)c2C#N)cc1" , please.
**A:** 34.1 µM (inactive)

**Q:** Same lookup for Nc1ncnc2c1ncn2C1CCC(CO)O1 (stereo not drawn) , please.
**A:** > 100 µM (inactive)

----------
- Tested on: HL-60
- Test Method Notes: NCI tumour cell line growth inhibition, 48 h
Activity calls are given as the source filed them. No stated cut-off is given here; in the data, active = GI50 up to about 1.1 µM and inactive = higher.
Permitted responses: yes (1) for active, no (0) for inactive

compound=COc1cc(O)c(C(=O)/C=C/c2ccccc2)c(OC)c1 tested_target=HL-60 qualitative_label="no (0)"
compound=CC[C@@]1(OP(=O)(O)O)C(=O)OCc2c1cc1n(c2=O)Cc2cc3ccccc3nc2-1 tested_target=HL-60 qualitative_label="yes (1)"
compound=Cc1cc(C)c2c(O)cc(-c3ccc(Cl)cc3)nc2n1 tested_target=HL-60 qualitative_label="no (0)"
compound="COC(=O)/C=C1\\SC2(O\\C1=N/c1ccccc1)C1CC3CC(C1)CC2C3 (stereo unspecified)" tested_target=HL-60 qualitative_label="no (0)"
compound=O=C(N/N=C(COc1cccc(Cl)c1)\N=C\c1cccnc1)c1ccncc1 tested_target=HL-60 qualitative_label="no (0)"

Let's switch to this compound now.
**Q:** Outcome? "CCCCCc1cc2cc3c(c(O)c2c(=O)[nH]1)C1(CCC3)C(=O)c2c(O)ccc(O)c2C1=O"
**A:** no (0)

----------
- System: DU-145
- Test Method Notes: NCI tumour cell line growth inhibition, 48 h
The source made the active and inactive calls. No stated cut-off is given here; in the data, active = GI50 up to about 1.1 µM and inactive = higher.
Permitted responses: label 1 for active, label 0 for inactive

compound=O=c1c2cc([N+](=O)[O-])ccc2n2n1CCCCC2 tested_target=DU-145 qualitative_label="label 0"
compound=N#CC(C#N)=C1CCCCc2ccc([N+](=O)[O-])cc21 tested_target=DU-145 qualitative_label="label 0"
compound="NC(=O)c1nc[nH]c1/N=N/SCC(N)C(=O)O (stereo not given)" tested_target=DU-145 qualitative_label="label 0"
compound=O=C(N/N=C(COc1cccc(Cl)c1)\N=C\c1cccnc1)c1ccncc1 tested_target=DU-145 qualitative_label="label 0"
compound=O=C(CCc1ccc(O)cc1)NCCc1cccc(OCc2ccccc2)c1 tested_target=DU-145 qualitative_label="label 0"

**Q:** Outcome? "COc1ccc(Nc2nc3c([nH]2)c(=O)n(C)c(=O)n3C)cc1"
**A:** label 0

**Q:** Same lookup for "C=CCN(c1cc(O)c2c(c(C)cn2S(=O)(=O)c2ccccc2)c1[N+](=O)[O-])S(C)(=O)=O" , please.
**A:** label 0

**Q:** Same lookup for "COc1ccc(NS(=O)(=O)c2ccc(NC(NC(=O)CC(C)C)(C(F)(F)F)C(F)(F)F)cc2)nn1" , please.
**A:** label 0

**Q:** Same lookup for "CCCCC(=O)c1ccc2ccccc2c1O" , please.
**A:** label 0

**Q:** Same lookup for CCOC(=O)C1(Cc2ccccc2)Cc2ccccc2C1=O (stereo not given) , please.
**A:** label 0

**Q:** Same lookup for "CSc1ccc2c(cc1=O)[C@@H](NC(C)=O)CCc1cc(O)c(O)c(O)c1-2" , please.
**A:** label 0

**Q:** Same lookup for "O=C1OCC2=Nc3cccc4cccc(c34)N12" , please.
**A:** label 0
